Biological target: Breast cancer type 2 susceptibility protein/DNA repair protein RAD51 homolog 1 (Homo sapiens, UniProt P51587+Q06609)
Sequence (P51587 whole entry V2466A): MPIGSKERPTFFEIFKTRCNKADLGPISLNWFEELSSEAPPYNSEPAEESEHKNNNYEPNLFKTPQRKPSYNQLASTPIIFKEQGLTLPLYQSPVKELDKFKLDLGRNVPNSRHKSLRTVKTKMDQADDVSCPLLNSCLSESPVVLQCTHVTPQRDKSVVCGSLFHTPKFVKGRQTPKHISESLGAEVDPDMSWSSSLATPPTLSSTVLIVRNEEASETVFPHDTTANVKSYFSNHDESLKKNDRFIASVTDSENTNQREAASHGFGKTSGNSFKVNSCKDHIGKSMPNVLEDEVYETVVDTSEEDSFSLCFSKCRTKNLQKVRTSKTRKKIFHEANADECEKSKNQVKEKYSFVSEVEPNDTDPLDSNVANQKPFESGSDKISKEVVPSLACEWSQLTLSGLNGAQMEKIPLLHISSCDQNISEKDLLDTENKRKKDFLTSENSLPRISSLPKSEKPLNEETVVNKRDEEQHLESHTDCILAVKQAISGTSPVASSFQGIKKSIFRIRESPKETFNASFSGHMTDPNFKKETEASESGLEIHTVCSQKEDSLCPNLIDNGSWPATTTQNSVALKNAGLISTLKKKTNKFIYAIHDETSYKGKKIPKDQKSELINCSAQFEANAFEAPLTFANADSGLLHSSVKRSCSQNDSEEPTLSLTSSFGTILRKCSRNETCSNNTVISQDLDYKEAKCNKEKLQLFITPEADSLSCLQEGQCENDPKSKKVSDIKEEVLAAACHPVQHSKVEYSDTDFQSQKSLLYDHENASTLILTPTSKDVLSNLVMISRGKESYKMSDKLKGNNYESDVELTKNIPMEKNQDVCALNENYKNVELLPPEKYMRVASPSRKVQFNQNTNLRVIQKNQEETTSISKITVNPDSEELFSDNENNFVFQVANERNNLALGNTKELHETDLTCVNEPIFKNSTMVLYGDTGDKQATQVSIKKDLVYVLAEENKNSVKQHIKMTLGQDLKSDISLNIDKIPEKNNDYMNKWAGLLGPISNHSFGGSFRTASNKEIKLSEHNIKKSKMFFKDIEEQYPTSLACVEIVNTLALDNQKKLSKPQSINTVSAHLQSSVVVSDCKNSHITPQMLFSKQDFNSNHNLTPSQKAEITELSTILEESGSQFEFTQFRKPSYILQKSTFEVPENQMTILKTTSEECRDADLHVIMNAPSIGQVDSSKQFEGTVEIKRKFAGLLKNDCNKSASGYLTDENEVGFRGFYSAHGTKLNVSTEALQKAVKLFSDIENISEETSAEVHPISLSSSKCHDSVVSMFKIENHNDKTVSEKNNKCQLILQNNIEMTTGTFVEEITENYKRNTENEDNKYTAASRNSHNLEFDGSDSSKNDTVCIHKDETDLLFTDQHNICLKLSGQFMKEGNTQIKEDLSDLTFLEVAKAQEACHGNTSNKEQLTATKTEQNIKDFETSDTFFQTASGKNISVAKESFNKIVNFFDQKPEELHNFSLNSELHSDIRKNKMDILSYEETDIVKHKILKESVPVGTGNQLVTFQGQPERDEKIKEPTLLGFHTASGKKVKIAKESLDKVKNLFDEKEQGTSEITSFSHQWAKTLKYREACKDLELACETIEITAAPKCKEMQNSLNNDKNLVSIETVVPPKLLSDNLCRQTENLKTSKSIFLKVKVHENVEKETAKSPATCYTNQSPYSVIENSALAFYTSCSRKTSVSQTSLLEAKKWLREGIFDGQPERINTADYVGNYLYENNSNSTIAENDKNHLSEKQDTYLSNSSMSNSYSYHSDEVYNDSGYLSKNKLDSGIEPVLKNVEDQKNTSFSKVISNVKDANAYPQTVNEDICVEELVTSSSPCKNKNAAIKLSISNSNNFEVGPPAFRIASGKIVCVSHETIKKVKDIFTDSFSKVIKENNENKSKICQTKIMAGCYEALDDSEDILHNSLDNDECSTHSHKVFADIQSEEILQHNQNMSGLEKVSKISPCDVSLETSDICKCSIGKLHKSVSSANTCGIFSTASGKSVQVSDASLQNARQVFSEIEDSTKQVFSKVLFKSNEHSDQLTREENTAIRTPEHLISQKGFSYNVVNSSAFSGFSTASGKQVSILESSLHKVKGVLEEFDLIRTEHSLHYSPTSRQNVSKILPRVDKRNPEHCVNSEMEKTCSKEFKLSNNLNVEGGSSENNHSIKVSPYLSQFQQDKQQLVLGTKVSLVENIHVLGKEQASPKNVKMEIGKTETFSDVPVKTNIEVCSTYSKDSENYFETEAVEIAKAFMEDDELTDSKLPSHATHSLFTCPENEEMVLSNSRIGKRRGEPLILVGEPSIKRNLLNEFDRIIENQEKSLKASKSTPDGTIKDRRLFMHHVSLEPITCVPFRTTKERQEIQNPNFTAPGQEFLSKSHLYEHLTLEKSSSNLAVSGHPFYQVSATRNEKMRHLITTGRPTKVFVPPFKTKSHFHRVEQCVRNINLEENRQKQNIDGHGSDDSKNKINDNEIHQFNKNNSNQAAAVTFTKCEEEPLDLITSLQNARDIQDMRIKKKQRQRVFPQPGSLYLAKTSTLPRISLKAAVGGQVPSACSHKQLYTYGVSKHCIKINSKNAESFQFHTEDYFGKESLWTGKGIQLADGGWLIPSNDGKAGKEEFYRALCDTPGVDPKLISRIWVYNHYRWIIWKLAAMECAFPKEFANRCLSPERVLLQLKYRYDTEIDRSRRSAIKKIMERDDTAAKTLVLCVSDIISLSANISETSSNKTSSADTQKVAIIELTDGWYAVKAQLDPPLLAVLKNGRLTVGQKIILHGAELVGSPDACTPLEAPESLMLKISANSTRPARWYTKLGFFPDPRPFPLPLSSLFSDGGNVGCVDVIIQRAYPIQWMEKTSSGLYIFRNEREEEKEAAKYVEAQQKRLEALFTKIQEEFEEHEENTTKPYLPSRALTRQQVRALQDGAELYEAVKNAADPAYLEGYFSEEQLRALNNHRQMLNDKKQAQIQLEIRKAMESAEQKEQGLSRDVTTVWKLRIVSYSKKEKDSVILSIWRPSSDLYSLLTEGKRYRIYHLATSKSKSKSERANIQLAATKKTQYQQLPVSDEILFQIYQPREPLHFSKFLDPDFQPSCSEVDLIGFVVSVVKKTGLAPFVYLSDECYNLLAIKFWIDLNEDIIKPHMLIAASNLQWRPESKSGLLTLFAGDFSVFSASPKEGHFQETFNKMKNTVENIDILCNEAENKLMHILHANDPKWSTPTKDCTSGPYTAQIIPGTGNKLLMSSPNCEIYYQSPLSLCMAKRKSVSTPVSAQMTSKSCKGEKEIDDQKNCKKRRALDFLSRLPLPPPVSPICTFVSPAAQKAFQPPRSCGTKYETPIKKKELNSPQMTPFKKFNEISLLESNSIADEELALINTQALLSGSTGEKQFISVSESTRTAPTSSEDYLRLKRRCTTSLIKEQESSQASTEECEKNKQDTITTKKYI
Sequence (Q06609 whole entry): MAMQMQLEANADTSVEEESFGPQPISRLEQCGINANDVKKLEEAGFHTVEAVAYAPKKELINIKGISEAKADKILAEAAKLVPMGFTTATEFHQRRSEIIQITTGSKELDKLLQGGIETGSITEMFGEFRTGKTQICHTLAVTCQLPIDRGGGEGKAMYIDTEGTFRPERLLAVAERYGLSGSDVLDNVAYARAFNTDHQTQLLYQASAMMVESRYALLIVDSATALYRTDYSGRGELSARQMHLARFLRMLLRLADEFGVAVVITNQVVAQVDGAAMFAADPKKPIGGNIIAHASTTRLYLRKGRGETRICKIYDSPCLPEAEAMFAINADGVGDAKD
Experiment: ELISA assay
pEC50: −log10 of the molar value.
# pEC50 values compiled below

[
  {
    "structureAsSmiles": "O=C(CSc1nnc(Cn2c(=O)sc3ccccc32)n1CCc1ccccc1)NC1CCCC1",
    "pEC50": 4.28
  },
  {
    "structureAsSmiles": "O=C(CSc1nnc(Cn2c(=O)sc3ccccc32)n1CCCc1ccccc1)NC1CCCC1",
    "pEC50": 4.60
  }
]
